Target: Rho-associated protein kinase 1 (Homo sapiens, UniProt Q13464)
Sequence (Q13464 whole entry, the tested form may be a part): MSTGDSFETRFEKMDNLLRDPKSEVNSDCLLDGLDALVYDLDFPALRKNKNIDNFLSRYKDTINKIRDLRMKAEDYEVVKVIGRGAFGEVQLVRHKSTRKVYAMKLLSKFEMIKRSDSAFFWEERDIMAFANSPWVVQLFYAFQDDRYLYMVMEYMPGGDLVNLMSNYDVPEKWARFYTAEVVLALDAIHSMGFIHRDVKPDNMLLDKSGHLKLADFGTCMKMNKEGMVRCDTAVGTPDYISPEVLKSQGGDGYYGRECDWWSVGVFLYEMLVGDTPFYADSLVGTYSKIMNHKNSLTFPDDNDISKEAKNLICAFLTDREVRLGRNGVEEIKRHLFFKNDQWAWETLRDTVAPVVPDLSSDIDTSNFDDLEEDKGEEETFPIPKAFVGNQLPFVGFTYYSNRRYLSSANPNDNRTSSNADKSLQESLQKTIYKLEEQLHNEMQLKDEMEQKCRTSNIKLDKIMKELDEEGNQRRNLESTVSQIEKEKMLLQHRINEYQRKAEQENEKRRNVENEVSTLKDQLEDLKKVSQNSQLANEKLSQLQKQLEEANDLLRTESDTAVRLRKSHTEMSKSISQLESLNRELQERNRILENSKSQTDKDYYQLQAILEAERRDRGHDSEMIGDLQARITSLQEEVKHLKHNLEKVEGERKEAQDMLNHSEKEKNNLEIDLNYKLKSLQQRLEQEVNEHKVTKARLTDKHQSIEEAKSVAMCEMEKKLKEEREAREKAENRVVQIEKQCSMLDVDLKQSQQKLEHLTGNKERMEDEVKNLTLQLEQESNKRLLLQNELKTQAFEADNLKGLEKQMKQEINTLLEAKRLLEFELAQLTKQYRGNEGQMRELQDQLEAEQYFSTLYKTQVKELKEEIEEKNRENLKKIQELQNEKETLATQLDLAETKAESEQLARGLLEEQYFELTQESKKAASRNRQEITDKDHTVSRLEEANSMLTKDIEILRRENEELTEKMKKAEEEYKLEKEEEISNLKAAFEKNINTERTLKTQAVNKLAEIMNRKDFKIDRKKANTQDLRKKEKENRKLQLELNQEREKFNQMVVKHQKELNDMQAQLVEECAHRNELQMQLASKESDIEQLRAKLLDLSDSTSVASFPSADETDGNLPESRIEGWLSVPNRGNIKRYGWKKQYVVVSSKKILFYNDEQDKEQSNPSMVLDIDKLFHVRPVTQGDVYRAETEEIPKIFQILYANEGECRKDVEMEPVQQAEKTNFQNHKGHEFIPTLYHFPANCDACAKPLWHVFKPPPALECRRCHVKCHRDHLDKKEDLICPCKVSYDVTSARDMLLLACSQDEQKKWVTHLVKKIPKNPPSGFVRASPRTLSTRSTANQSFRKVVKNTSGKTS
Assay: Inhibition of recombinant human ROCK1 (17 to 535 residues) using KEAKEKRQEQIAKRRRLSSLRASTSKSGGSQK as substrate incubated for 40 mins in presence of [gamma-33P]ATP by radiometric scintillation assay
Give measured pIC50 for each item. Keep answers brief.
FYI, pIC50 means -log10 of a concentration in mol per litre.

Challenge: For the compound `COc1cccc(Cn2cnc3sc(-c4ccnc5[nH]ccc45)cc3c2=O)c1` , what pIC50 is on record?
Response given: 8.40

Challenge: # query: pIC50 of entry `COc1cccc(Cn2ccc3cc(-c4ccc5[nH]ncc5c4)ccc3c2=O)c1`
Response given: 5.73

Challenge: Item under review: `Nc1cc(-c2cc3c(=O)n(Cc4cccc(C(F)(F)F)c4)cnc3s2)ccn1` . Reported pIC50?
Response given: 6.31

###

Hi there, I'd appreciate the recorded IC50 for every entry that follows.
Target: Rho-associated protein kinase 2 (Homo sapiens)
Test: Inhibition of recombinant human ROCK2 (11 to 552 residues) using KEAKEKRQEQIAKRRRLSSLRASTSKSGGSQK as substrate incubated for 40 mins in presence of [gamma-33P]ATP by radiometric scintillation assay
Express it in nM; write the number only.

Challenge: What measured IC50 is associated with `COc1cccc(Cn2cnc3sc(-c4ccnc(Cl)c4)cc3c2=O)c1` on Rho-associated protein kinase 2 (Homo sapiens)?
Response given: 501

Challenge: Query IC50 on Rho-associated protein kinase 2 (Homo sapiens) for `COc1cccc(Cn2cnc3sc(-c4ccc5[nH]ncc5c4)cc3c2=O)c1`
Response given: 2

Challenge: Fill in the recorded IC50 for this compound, with Rho-associated protein kinase 2 (Homo sapiens) as test system: `COc1ccc(Cn2cnc3sc(-c4ccnc(N)c4)cc3c2=O)cc1`
Response given: 46

Challenge: Lookup: IC50 / Rho-associated protein kinase 2 (Homo sapiens) / `COc1cccc(Cn2ccc3cc(-c4ccc5[nH]ncc5c4)ccc3c2=O)c1`
Response given: 107

Challenge: Find the measured IC50: item `COc1cccc(Cn2cnc3sc(-c4ccnc(F)c4)cc3c2=O)c1` , target or system Rho-associated protein kinase 2 (Homo sapiens).
Response given: 83

Challenge: Kindly state the measured IC50 obtained for `COc1cccc(Cn2cnc3sc(-c4ccnc(C)c4)cc3c2=O)c1` with Rho-associated protein kinase 2 (Homo sapiens).
Response given: 42

Challenge: Under Rho-associated protein kinase 2 (Homo sapiens): IC50 value of `Nc1cc(-c2cc3c(=O)n(Cc4cccc(F)c4)cnc3s2)ccn1` ?
Response given: 5

Challenge: For Rho-associated protein kinase 2 (Homo sapiens), provide IC50 of `COc1ccc(Cn2cnc3sc(-c4ccnc5[nH]ccc45)cc3c2=O)cc1OC` please.
Response given: 4

Challenge: Form entry - test system: Rho-associated protein kinase 2 (Homo sapiens); read-out: IC50; compound: `COc1cccc(Cn2cnc3sc(-c4ccnc(OC)c4)cc3c2=O)c1`
Response given: 6910

###

Target: Rho-associated protein kinase 2 (Homo sapiens, UniProt O75116)
Sequence (O75116 whole entry, the tested form may be a part): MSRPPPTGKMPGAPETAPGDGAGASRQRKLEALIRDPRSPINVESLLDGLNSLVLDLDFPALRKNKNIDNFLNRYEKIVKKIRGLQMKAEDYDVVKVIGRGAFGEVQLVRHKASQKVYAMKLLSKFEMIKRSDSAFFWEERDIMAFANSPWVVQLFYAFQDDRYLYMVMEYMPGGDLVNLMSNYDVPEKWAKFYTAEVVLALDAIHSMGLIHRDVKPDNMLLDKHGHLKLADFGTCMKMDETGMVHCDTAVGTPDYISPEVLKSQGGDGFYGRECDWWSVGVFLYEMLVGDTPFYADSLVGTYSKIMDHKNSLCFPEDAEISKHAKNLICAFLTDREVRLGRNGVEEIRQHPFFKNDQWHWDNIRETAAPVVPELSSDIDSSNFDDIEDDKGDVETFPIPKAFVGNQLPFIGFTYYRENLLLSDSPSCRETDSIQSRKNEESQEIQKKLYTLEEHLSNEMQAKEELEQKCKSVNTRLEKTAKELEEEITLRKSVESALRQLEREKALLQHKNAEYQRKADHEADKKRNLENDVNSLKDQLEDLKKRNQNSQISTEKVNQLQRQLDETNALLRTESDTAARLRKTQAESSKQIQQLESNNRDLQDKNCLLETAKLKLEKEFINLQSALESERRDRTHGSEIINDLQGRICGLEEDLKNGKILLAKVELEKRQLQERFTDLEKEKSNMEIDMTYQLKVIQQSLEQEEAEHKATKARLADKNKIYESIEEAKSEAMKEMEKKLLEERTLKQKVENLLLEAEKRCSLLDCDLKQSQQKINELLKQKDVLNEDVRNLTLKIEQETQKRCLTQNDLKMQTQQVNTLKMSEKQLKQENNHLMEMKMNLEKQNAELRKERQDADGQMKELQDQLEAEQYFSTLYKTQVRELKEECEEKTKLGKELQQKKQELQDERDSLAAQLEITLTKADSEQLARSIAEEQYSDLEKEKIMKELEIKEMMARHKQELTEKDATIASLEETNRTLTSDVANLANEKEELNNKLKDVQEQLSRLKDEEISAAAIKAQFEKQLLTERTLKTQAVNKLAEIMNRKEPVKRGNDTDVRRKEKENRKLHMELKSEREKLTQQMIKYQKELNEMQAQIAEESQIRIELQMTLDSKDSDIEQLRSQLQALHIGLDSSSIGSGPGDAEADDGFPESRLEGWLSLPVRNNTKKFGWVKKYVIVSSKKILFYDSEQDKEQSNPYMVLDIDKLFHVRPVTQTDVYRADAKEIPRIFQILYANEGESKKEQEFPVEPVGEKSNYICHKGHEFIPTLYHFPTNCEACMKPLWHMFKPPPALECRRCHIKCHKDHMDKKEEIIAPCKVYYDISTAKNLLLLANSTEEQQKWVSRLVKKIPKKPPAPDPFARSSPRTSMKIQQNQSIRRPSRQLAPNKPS
Experiment: Inhibition of recombinant human ROCK2 (11 to 552 residues) using KEAKEKRQEQIAKRRRLSSLRASTSKSGGSQK as substrate incubated for 40 mins in presence of [gamma-33P]ATP by radiometric scintillation assay
reported_endpoint: pIC50
Remember the convention: pIC50 equals -log10 of concentration in molar.

Challenge: Can you look up the measured pIC50 of `COc1cc(Cn2cnc3sc(-c4ccnc5[nH]ccc45)cc3c2=O)cc(OC)c1` for me?
Response given: 8.40

Challenge: What value of pIC50 has been reported for the following molecule? `COc1cccc(Cn2cnc3sc(-c4ccnc5[nH]ccc45)cc3c2=O)c1`
Response given: 9.00

Challenge: May I ask what pIC50 has been recorded for `COc1cc(Cn2cnc3sc(-c4ccnc(N)c4)cc3c2=O)cc(OC)c1` ?
Response given: 7.24

Challenge: Which measured pIC50 value corresponds to `COc1cccc(Cn2cnc3sc(-c4ccncc4)cc3c2=O)c1` ?
Response given: 8.22

Challenge: State the recorded pIC50 for this entry: `COc1cccc(Cn2cnc3cc(-c4ccc5[nH]ncc5c4)ccc3c2=O)c1`
Response given: 7.06

Challenge: Data request, read-out pIC50, for `O=c1c2cc(-c3ccnc4[nH]ccc34)sc2ncn1Cc1cccc(F)c1`
Response given: 9.00

Challenge: Suppose we examine the molecule `COc1ccc(Cn2cnc3sc(-c4ccnc(N)c4)cc3c2=O)cc1OC` ; what pIC50 value has been reported?
Response given: 6.66

Challenge: # input molecule: `COc1cccc(CN2CCc3cc(-c4ccc5[nH]ncc5c4)ccc3C2=O)c1` ; wanted: its pIC50
Response given: 6.20

Challenge: Recorded pIC50 of `COc1cccc(Cn2ncc3cc(-c4ccc5[nH]ncc5c4)ccc3c2=O)c1` , please.
Response given: 6.40

Challenge: # input molecule: `COc1cccc(Cn2cnc3sc(-c4ccnc(N)c4)cc3c2=O)c1` ; wanted: its pIC50
Response given: 9.00
